Where these numbers come from: ChEMBL document CHEMBL2029340

Reported IC50 values follow for various compounds
- Tested on: Influenza A virus
- test-details: Antiviral activity against amantidine-resistant Influenza A virus A/WSN/33(H1N1) infected in MDCK cells assessed as inhibition of virus-induced cytopathic effects after 3 days by CCK-8 assay
- Type: functional, organism-based
- test-conditions: A/WSN/1933(H1N1), 72 h

Q) Quick one: give measured IC50 for `Cc1onc(-c2ccccc2)c1C(=O)N1CCN(c2ccc([N+](=O)[O-])cc2Cl)CC1`
A) 0.32 µM

Q) Provide measured IC50 value, entry: `COc1cc([N+](=O)[O-])ccc1N1CCN(C(=O)c2c(C)nnn2-c2ccccc2OC)CC1`
A) > 50 µM

Q) // fetch IC50 given entry `COc1cccc(-n2nnc(C)c2C(=O)N2CCN(c3ccc([N+](=O)[O-])cc3Cl)CC2)c1`
A) 5.35 µM

Q) Check the records and state IC50 for `COc1ccccc1-n1nnc(C)c1C(=O)N1CCCN(c2ccc([N+](=O)[O-])cc2Cl)CC1`
A) 35.5 µM

Q) Given the compound `Cc1[nH]nc(-c2ccccc2)c1C(=O)N1CCN(c2ccc([N+](=O)[O-])cc2Cl)CC1` , write its reported IC50.
A) 3.38 µM

Q) Give recorded IC50. `NC12CC3CC(CC(C3)C1)C2`
A) > 50 µM

Q) Read the entry `Cc1noc(-c2ccccc2)c1C(=O)N1CCN(c2ccc([N+](=O)[O-])cc2Cl)CC1` and write its reported IC50.
A) 4.83 µM

Q) Identify measured IC50 corresponding to `COc1ccccc1-n1nncc1C(=O)N1CCN(c2ccc([N+](=O)[O-])cc2Cl)CC1`
A) 8.36 µM

Q) In one line, give reported IC50 of the entry `O=C(c1ccccc1-c1ccccc1)N1CCN(c2ccc([N+](=O)[O-])cc2Cl)CC1` .
A) 5.24 µM

###

- System: Influenza A virus
- test-details: Antiviral activity against amantidine-resistant Influenza A virus A/WSN/33(H1N1) infected in MDCK cells assessed as inhibition of virus-induced cytopathic effects after 3 days by CCK-8 assay
- Type: functional, organism-based
- test-conditions: A/WSN/1933(H1N1), 72 h
parameter: IC50

{"smi": "COc1ccc(-n2nnc(C)c2C(=O)N2CCN(c3ccc([N+](=O)[O-])cc3Cl)CC2)cc1", "study-system": "Influenza A virus", "measured-result": "5.61 µM"}
{"smi": "COc1ccccc1-n1nnc(C)c1C(=O)N1CCN(c2ccc([N+](=O)[O-])cc2)CC1", "study-system": "Influenza A virus", "measured-result": "17 µM"}
{"smi": "Cc1[nH]nc(-c2ccccc2Cl)c1C(=O)N1CCN(c2ccc([N+](=O)[O-])cc2Cl)CC1", "study-system": "Influenza A virus", "measured-result": "0.72 µM"}
{"smi": "Cc1nnn(-c2ccccc2Cl)c1C(=O)N1CCN(c2ccc([N+](=O)[O-])cc2Cl)CC1", "study-system": "Influenza A virus", "measured-result": "1.2 µM"}

Shifting focus to the compound that follows.
Q) Query IC50 for `Cc1nnn(-c2ccccc2)c1C(=O)N1CCN(c2ccc([N+](=O)[O-])cc2Cl)CC1`
A) 3.13 µM

###

Below, each of the compounds is paired with its reported pIC50 value.
- System: Influenza A virus
- test-details: Antiviral activity against tamiflu-resistant Influenza A virus A/WSN/33 (H1N1) harboring neuraminidase 274Y mutant infected in MDCK cells assessed as reduction of nucleoprotein antigen level after 3 days
- Format: functional, organism-based, A/WSN/1933(H1N1)
pIC50 here is simply -log10 of the concentration when that concentration is written in mol/L.

{"smi": "Cc1onc(-c2ccccc2)c1C(=O)N1CCN(c2ccc([N+](=O)[O-])cc2Cl)CC1", "study-system": "Influenza A virus", "measured-result": 6.18}

We now examine a further compound.
Q) In one line, give reported pIC50 of the entry `COc1ccccc1-n1nnc(C)c1C(=O)N1CCN(c2ccc([N+](=O)[O-])cc2Cl)CC1` .
A) 5.95

###

- Test system: Influenza A virus
- test-details: Antiviral activity against amantidine-resistant Influenza A virus A/WSN/33(H1N1) infected in MDCK cells assessed as inhibition of virus-induced cytopathic effects after 3 days by CCK-8 assay
- Type: functional, organism-based
- test-conditions: A/WSN/1933(H1N1), 72 h
Recorded pIC50, one value per entry.
Interpret pIC50 as the negative base-10 log of the concentration measured in mol/L.

Some entries whose results are on file:
{"smi": "COc1ccccc1-c1onc(C)c1C(=O)N1CCN(c2ccc([N+](=O)[O-])cc2Cl)CC1", "study-system": "Influenza A virus", "pIC50": 6.15}
{"smi": "Cc1nnn(-c2cccc(Cl)c2)c1C(=O)N1CCN(c2ccc([N+](=O)[O-])cc2Cl)CC1", "study-system": "Influenza A virus", "pIC50": 5.31}
{"smi": "CC(=O)c1ccccc1-n1nnc(C)c1C(=O)N1CCN(c2ccc([N+](=O)[O-])cc2Cl)CC1", "study-system": "Influenza A virus", "pIC50": 4.86}
{"smi": "Cc1ccccc1-n1nnc(C)c1C(=O)N1CCN(c2ccc([N+](=O)[O-])cc2Cl)CC1", "study-system": "Influenza A virus", "pIC50": 5.62}

Now consider the entry below.
Q) Provide one value: measured pIC50 of `CCOc1ccccc1-n1nnc(C)c1C(=O)N1CCN(c2ccc([N+](=O)[O-])cc2Cl)CC1`
A) 5.49
